Biological target: FAP (Homo sapiens, UniProt Q12884)
Construct: endogenous in cells
Sequence (Q12884 whole entry): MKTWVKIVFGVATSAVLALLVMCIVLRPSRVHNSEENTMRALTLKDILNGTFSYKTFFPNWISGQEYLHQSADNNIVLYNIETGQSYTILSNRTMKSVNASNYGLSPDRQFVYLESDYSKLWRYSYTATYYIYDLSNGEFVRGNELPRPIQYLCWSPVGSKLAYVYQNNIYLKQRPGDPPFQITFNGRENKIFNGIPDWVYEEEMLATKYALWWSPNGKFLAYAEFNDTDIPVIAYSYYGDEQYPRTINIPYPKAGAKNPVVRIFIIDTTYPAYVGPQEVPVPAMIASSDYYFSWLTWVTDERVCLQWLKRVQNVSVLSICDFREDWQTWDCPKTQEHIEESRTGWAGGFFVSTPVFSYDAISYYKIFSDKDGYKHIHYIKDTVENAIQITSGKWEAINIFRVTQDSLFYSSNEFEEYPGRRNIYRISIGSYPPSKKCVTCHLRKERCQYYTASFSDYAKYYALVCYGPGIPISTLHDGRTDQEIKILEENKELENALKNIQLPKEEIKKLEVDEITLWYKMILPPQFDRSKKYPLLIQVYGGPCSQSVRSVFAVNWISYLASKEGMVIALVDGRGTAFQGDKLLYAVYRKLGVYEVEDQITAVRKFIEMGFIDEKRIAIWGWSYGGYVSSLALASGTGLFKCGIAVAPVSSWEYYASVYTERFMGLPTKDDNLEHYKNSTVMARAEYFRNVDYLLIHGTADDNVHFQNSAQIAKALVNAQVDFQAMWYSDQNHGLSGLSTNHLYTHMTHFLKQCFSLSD
Test: Competition assay against ^68Ga-FAPI-02 in U87MG cells
Settings: unlabeled ligand competing with ^68Ga-FAPI-02, 1 h, read-out: IC50 (binding affinity to FAP in vitro)
assay.metric: IC50 (nM)
Give bare numbers, in nM.

Data request: Please give the measured IC50 for this molecule: N#C[C@@H]1CCCN1C(=O)CNC(=O)c1ccnc2ccc(OCCCN3CCN(C(=O)CN4CCN(CC(=O)O)CCN(CC(=O)O)CCN(CC(=O)O)CC4)CC3)cc12 [FAPI-02]
Data returned: 10.9

Attribution: paper PMC8690933
